Conditions: 283.15 K; 20000 kPa; Liquid

{"columns": ["COMPOUND", "mass density [kg/m3]"],
 "data": [
  ["CCCCCCCCCCCCCC[P+](CCCCCC)(CCCCCC)CCCCCC.[Br-] [tetradecyltrihexylphosphonium bromide]", 972.8],
  ["CCCCCCCCCCCCCC[P+](CCCCCC)(CCCCCC)CCCCCC.N#C[N-]C#N [tetradecyl(trihexyl)phosphonium dicyanamide]", 916.2],
  ["CCCCCCCCCCCCCC[P+](CCCCCC)(CCCCCC)CCCCCC.O=S(=O)([N-]S(=O)(=O)C(F)(F)F)C(F)(F)F", 1088.3],
  ["CCCCCCCCCCCCCC[P+](CCCCCC)(CCCCCC)CCCCCC.[Cl-] [trihexyl(tetradecyl)phosphonium chloride]", 907.5],
  ["CCCCCCCCCCCCCC[P+](CCCCCC)(CCCCCC)CCCCCC.CS(=O)(=O)[O-] [trihexyltetradecylphosphonium methanesulfonate]", 948]
]}
